# System: HOP-18 NSCLC
# EXPERIMENT_SUMMARY: NCI tumour cell line growth inhibition, 48 h

COMPOUND | TGI
COc1ccc2[nH]c3c(c2c1)CCN(C)CC3 | > 100 µM
Nn1c(-c2ccccc2)nc2ccc(Br)cc2c1=O | > 100 µM
COc1cc(CCc2ccc(OCCN(C)C)cc2)cc(OC)c1OC | > 100 µM
O=C1C(=O)N(C(=O)c2ccc(Cl)c(Cl)c2)c2ccccc21 | > 100 µM
Cn1c2c(c3ccccc31)CCN(CCCCN1CCc3c(n(C)c4ccccc34)C1=O)C2 | > 100 µM
CNC(P(=O)([O-])[O-])P(=O)([O-])[O-].N.N.[Pt+2] | > 100 µM
COC(=O)C12Oc3ccc(-c4ccc5c(c4O)C(=O)C4=CCC(C)C(O)C4(C(=O)OC)O5)c(O)c3C(=O)C1=CCC(C)C2O (centres undefined) | 6.56 µM
N#CCC(=O)Nc1cccc(C(F)(F)F)c1 | > 100 µM
COc1cc([C@H]2c3cc4c(cc3O[C@@]3(O)COC(=O)[C@@H]23)OCO4)cc(OC)c1OC | > 100 µM

---

# Test system: MDA-MB-435
# EXPERIMENT_SUMMARY: NCI tumour cell line growth inhibition, 48 h

COMPOUND | TGI
COc1ccc2cc(C(=O)/C=C/c3cc(OC)c(OC)c(OC)c3)ccc2c1 | 40.5 µM
O=C(NNc1nc(Cl)nc(N2CCN(C(c3ccccc3)c3ccccc3)CC2)n1)c1ccccc1 | 3.21 µM
CC(C)Oc1c(-c2c(OC(C)C)c(=O)c2=O)c(=O)c1=O | > 41.6 µM
CC(=O)n1c(COS(C)(=O)=O)nc2ccccc21 | > 100 µM
CC1(C)OC2OC(COC(=O)C=[N+]=[N-])C3OC(C)(C)OC3C2O1 (stereo not given) | > 100 µM

---

Let's look at some compounds and their measured GI50.
# Test system: SF-295 CNS
# EXPERIMENT_SUMMARY: NCI tumour cell line growth inhibition, 48 h
Non-standard residues stand in square brackets, D forms with d. Residues, ends and D or L forms follow the SMILES beside them. *: point of attachment. ONb = O=[N+]([O-])c1ccc(CO*)cc1; AllylGly = C=CC[CH](N)C(=O)O; Boc = CC(C)(C)OC(=O)*
RECORDED_METRIC: GI50

COMPOUND | RESULT_VALUE
CCC[CH2][Sn-]([CH2]CCC)([CH2]CCC)[O]c1cc(Cl)c(Cl)cc1Cl | 263 nM
C=CCC(NC(=O)OC(C)(C)C)C(=O)NC(CCC(=O)OCc1ccc([N+](=O)[O-])cc1)C(N)=O (configuration not stated) (Boc-[AllylGly]-Glu(ONb)-NH2; configuration not given here) | 16.9 µg/mL
COc1ccc(-c2nc3sc(C)cn3c2/C=C/C(=O)c2cc(OC)c(OC)c(OC)c2)cc1 | 4420 nM
O=C(CN1CCN(c2ncccn2)CC1)Nc1ccc(Cl)cc1C(=O)c1ccccc1Cl | > 100000 nM
O=[N+]([O-])C1C(c2ccccc2)C12c1ccccc1-c1ccccc12 (configuration not stated) | 598 nM
O=C1NCc2ccc3c(-c4cccc(Cl)c4)c[nH]c3c21 | 199 nM
CC(=O)Nc1ccc2c(c1)c(C1=C(c3cn(C)c4ccccc34)C(=O)NC1=O)cn2C | 1180 nM
